// data source = patent US20230365662A1

- test-target: HRgpA-6H (Porphyromonas gingivalis) (UniProt P28784)
- experimental-details: ELISA, Fab FASEBA supernatant on coated HRgpA-6H (0.0625 ug/ml)
endpoint-name: OD450nm

Examples from the recorded data:
1. KB001 parental mouse Fab VH variant K64G (Fab, V domains shown) VH: EVQLKQSGPGLVAPSQSLSITCTVSGFSLSIYSVHWVRQPPGKGLEWLGMIWGGGSSDYNSALGSRLSISKDNSKSQVFLKMNSLQTDDTAMYYCARNGNFYAMDYWGQGTSVTVSS VL: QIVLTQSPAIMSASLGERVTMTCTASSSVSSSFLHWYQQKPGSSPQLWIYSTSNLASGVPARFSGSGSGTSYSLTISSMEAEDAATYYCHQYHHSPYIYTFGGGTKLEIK :: 0.811
2. KB001 parental mouse Fab VH variant M104V (Fab, V domains shown) VH: EVQLKQSGPGLVAPSQSLSITCTVSGFSLSIYSVHWVRQPPGKGLEWLGMIWGGGSSDYNSALKSRLSISKDNSKSQVFLKMNSLQTDDTAMYYCARNGNFYAVDYWGQGTSVTVSS VL: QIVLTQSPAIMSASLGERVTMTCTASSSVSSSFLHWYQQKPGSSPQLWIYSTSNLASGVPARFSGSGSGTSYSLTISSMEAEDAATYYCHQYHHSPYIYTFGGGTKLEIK :: 0.654
3. KB001 parental mouse Fab VH variant F101L (Fab, V domains shown) VH: EVQLKQSGPGLVAPSQSLSITCTVSGFSLSIYSVHWVRQPPGKGLEWLGMIWGGGSSDYNSALKSRLSISKDNSKSQVFLKMNSLQTDDTAMYYCARNGNLYAMDYWGQGTSVTVSS VL: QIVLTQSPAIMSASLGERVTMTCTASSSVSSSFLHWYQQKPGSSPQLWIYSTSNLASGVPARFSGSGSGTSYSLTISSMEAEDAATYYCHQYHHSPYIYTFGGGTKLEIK :: 0.681
4. KB001 parental mouse Fab VH variant S65T (Fab, V domains shown) VH: EVQLKQSGPGLVAPSQSLSITCTVSGFSLSIYSVHWVRQPPGKGLEWLGMIWGGGSSDYNSALKTRLSISKDNSKSQVFLKMNSLQTDDTAMYYCARNGNFYAMDYWGQGTSVTVSS VL: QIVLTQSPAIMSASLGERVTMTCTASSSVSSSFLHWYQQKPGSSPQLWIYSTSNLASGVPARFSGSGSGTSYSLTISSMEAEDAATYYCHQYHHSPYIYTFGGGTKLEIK :: 0.759

### Prompt Which OD450nm is listed for KB001 parental mouse Fab VH variant A103L (Fab, V domains shown) VH: EVQLKQSGPGLVAPSQSLSITCTVSGFSLSIYSVHWVRQPPGKGLEWLGMIWGGGSSDYNSALKSRLSISKDNSKSQVFLKMNSLQTDDTAMYYCARNGNFYLMDYWGQGTSVTVSS VL: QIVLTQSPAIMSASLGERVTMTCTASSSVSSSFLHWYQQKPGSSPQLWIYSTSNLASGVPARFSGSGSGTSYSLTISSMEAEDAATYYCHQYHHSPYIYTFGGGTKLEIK ?
### Response 0.783

### Prompt Which OD450nm is listed for KB001 parental mouse Fab VH variant N100A (Fab, V domains shown) VH: EVQLKQSGPGLVAPSQSLSITCTVSGFSLSIYSVHWVRQPPGKGLEWLGMIWGGGSSDYNSALKSRLSISKDNSKSQVFLKMNSLQTDDTAMYYCARNGAFYAMDYWGQGTSVTVSS VL: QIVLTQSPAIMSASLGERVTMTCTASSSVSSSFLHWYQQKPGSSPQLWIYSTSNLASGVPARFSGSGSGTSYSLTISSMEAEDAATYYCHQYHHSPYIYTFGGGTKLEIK ?
### Response 0.809

### Prompt Which OD450nm is listed for KB001 parental mouse Fab VH variant S65G (Fab, V domains shown) VH: EVQLKQSGPGLVAPSQSLSITCTVSGFSLSIYSVHWVRQPPGKGLEWLGMIWGGGSSDYNSALKGRLSISKDNSKSQVFLKMNSLQTDDTAMYYCARNGNFYAMDYWGQGTSVTVSS VL: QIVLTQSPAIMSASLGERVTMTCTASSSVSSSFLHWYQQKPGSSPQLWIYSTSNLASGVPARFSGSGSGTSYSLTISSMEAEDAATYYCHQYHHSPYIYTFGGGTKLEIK ?
### Response 0.825

### Prompt Which OD450nm is listed for KB001 parental mouse Fab VH variant A103K (Fab, V domains shown) VH: EVQLKQSGPGLVAPSQSLSITCTVSGFSLSIYSVHWVRQPPGKGLEWLGMIWGGGSSDYNSALKSRLSISKDNSKSQVFLKMNSLQTDDTAMYYCARNGNFYKMDYWGQGTSVTVSS VL: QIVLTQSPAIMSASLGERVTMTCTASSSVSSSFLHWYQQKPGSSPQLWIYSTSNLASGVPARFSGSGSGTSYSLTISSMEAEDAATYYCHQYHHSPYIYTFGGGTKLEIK ?
### Response 0.723

### Prompt Which OD450nm is listed for KB001 parental mouse Fab VH variant S65P (Fab, V domains shown) VH: EVQLKQSGPGLVAPSQSLSITCTVSGFSLSIYSVHWVRQPPGKGLEWLGMIWGGGSSDYNSALKPRLSISKDNSKSQVFLKMNSLQTDDTAMYYCARNGNFYAMDYWGQGTSVTVSS VL: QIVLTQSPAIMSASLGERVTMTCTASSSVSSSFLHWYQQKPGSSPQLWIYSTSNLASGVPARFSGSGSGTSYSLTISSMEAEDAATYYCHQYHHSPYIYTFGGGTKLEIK ?
### Response 0.814

### Prompt Which OD450nm is listed for KB001 parental mouse Fab VH variant N100E (Fab, V domains shown) VH: EVQLKQSGPGLVAPSQSLSITCTVSGFSLSIYSVHWVRQPPGKGLEWLGMIWGGGSSDYNSALKSRLSISKDNSKSQVFLKMNSLQTDDTAMYYCARNGEFYAMDYWGQGTSVTVSS VL: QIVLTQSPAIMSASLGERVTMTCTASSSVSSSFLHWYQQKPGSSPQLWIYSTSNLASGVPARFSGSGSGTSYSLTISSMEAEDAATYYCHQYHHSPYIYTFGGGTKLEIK ?
### Response 0.823
